assay_overview: Test of stability in liver microsomes (monkey)
Type: in vitro ADME
recorded_conditions: 1 μM test compound, NADPH, 37° C., read-out: Hepatic microsomal intrinsic clearance CLint (mic)
endpoint: microsomal CLint at 1 μM (µL/min/mg)

* Cc1cc(-c2c(C)cc(F)cc2C)cc([C@H](CC(=O)O)NC(=O)[C@H](CC(C)C)n2cc(CCN(C)C)c(C(F)(F)F)cc2=O)c1F [Control compound A] | 130

* * *

assay_overview: Test of stability in liver microsomes (monkey)
Assay type: in vitro ADME
recorded_conditions: 1 μM test compound, NADPH, 37° C., read-out: Hepatic intrinsic clearance CLint(liver)
endpoint: CLint scaled at 1 μM (mL/min/kg)

- Cc1cc(-c2c(C)cc(F)cc2C)cc([C@H](CC(=O)O)NC(=O)[C@H](CC(C)C)n2cc(CCN(C)C)c(C(F)(F)F)cc2=O)c1F [Control compound A]: 176

Data origin: patent US20260274797A1
